- SYSTEM: bombesin 1 receptor (BB1 or NMB receptor), recombinant cells
- PROCEDURE_TEXT: radioligand displacement, recombinant cells expressing BB1 (NMB receptor)
pKi: −log10 of the molar value. Ends that are not written are not given here.
Below: a set of entries, each annotated with reported pKi.
MEASURED_PARAMETER: pKi

- GNLWATGHFM-NH2 [NMB]: 10.00
- {fluorescein (carboxylic form)}-GNLWATGHFM-NH2 [fluoresceinyl-NMB]: 8.15
